Test system: Escherichia coli
Details: Concentration 20 uM; ASSAY_TEST Inhibition of Bacterial Growth; detection method Absorption (OD600); MEDIA CAMHB; plate type 384well; NBS; CORNING #3640; time 18 hr
Description: Antibacterial activity against Escherichia coli ATCC 25922 (CO-ADD:GN_001); MIC in CAMBH media using NBS plates, by OD(600)
Potency and affinity values are given separately.
attribute_measured: Inhibition (%)
Write the answer as a number in %, unit excluded.

Request: Requested read-out Inhibition, target or system Escherichia coli, entry COc1ccc2[nH]cc(CCN)c2c1 [5-METHOXYTRYPTAMINE]
Result: -0.18

Request: What do you get for N=C(NCc1ccc(Cl)cc1)SCCCc1c[nH]cn1 [CLOBENPROPIT] ?
Result: -3.53

====

Tested on: Staphylococcus aureus
Details: Concentration 20 uM; ASSAY_TEST Inhibition of Bacterial Growth; detection method Absorption (OD600); MEDIA CAMHB; plate type 384well; NBS; CORNING #3640; time 18 hr
Description: Antibacterial activity against Staphylococcus aureus MRSA ATCC 43300 (CO-ADD:GP_020); MIC in CAMBH media, using NBS plates, by OD(600)
Potency and affinity values are given separately.
Decide using Inhibition: a value greater than or equal to 10% is class 1, a smaller one is class 0.

Previously resolved entries follow.
>  <molecule>
C=C(C)[C@@H]1[C@H]2OC(=O)[C@@H]1[C@]1(O)C[C@H]3O[C@]34C(=O)O[C@H]2[C@]14C.CC(C)(O)[C@@H]1[C@H]2OC(=O)[C@@H]1[C@]1(O)C[C@H]3O[C@]34C(=O)O[C@H]2[C@]14C

>  <qualitative_label>
class 1

$$$$
>  <molecule>
COCCCOc1ccnc(C[S+]([O-])c2nc3ccccc3[nH]2)c1C (configuration not stated) [RABEPRAZOLE]

>  <qualitative_label>
class 1

$$$$
>  <molecule>
COc1ccc2[nH]cc(CCN)c2c1 [5-METHOXYTRYPTAMINE]

>  <qualitative_label>
class 0

$$$$
>  <molecule>
Br.Br.CN1CC[C@]2(c3cccc(O)c3)Cc3nc4ccccc4cc3C[C@H]2C1.O

>  <qualitative_label>
class 0

$$$$
>  <molecule>
c1ccc(Cn2ccnc2)cc1

>  <qualitative_label>
class 1

$$$$
>  <molecule>
C#C[C@]1(OC(C)=O)CC[C@H]2[C@@H]3CCC4=CC(=O)CC[C@@H]4[C@H]3CC[C@@]21C [NORETHINDRONE ACETATE]

>  <qualitative_label>
class 1

$$$$

Next, consider the following molecule.
Request: Kindly determine if Inhibition recorded for Br.CN1[C@@H]2CC(OC(=O)[C@H](CO)c3ccccc3)C[C@H]1[C@@H]1O[C@@H]12.O.O.O (some centres not stated) is above or exactly 10%.
Result: class 1

====

Measured Inhibition, listed per entry.
System: Escherichia coli
Conditions: Concentration 20 uM; ASSAY_TEST Inhibition of Bacterial Growth; detection method Absorption (OD600); MEDIA CAMHB; plate type 384well; NBS; CORNING #3640; time 18 hr
Measured potencies and affinities stand elsewhere.
Write the answer as a number in %, unit excluded.

>  <molecule>
CNCC(O)c1ccc(O)cc1 (centres undefined) [OXEDRINE]

>  <attribute_measured>
Inhibition

>  <test_value>
6.6

$$$$

Request: Name the recorded Inhibition for C[C@]12CCC(=O)C=C1CC[C@@H]1[C@@H]2CC[C@@]2(C)[C@H]1CC[C@]2(C)O [METHYLTESTOSTERONE] .
Result: 3.56

Request: What do you get for CCCN1C[C@H](CSC)C[C@@H]2c3cccc4[nH]cc(c34)C[C@H]21.CS(=O)(=O)O [PERGOLIDE MESYLATE] ?
Result: 4.25

Request: What do you get for COC(=O)N1CCN(C(=O)Cc2ccc(Cl)c(Cl)c2)C(CN2CCCC2)C1.O=C(O)/C=C/C(=O)O (centres undefined) ?
Result: 2.23

====

Test system: Staphylococcus aureus
Conditions: Concentration 20 uM; ASSAY_TEST Inhibition of Bacterial Growth; detection method Absorption (OD600); MEDIA CAMHB; plate type 384well; NBS; CORNING #3640; time 18 hr
Potency and affinity values are given separately.
attribute_measured: Inhibition (%)
Write the answer as a number in %, unit excluded.

Worked cases, answers included:
>  <molecule>
CN(C)CCOc1ccc(/C(=C(/CCCl)c2ccccc2)c2ccccc2)cc1.O=C(O)CC(O)(CC(=O)O)C(=O)O [TOREMIFENE CITRATE]

>  <tested_target>
Staphylococcus aureus

>  <value_units>
%

>  <Inhibition>
24.11

$$$$
>  <molecule>
CNCCC(Oc1ccc(C(F)(F)F)cc1)c1ccccc1.Cl (configuration not stated) [FLUOXETINE HYDROCHLORIDE]

>  <tested_target>
Staphylococcus aureus

>  <value_units>
%

>  <Inhibition>
15.46

$$$$
>  <molecule>
CCN(CC)CCOC(=O)C(O)(c1ccccc1)c1ccccc1.Cl

>  <tested_target>
Staphylococcus aureus

>  <value_units>
%

>  <Inhibition>
13

$$$$
>  <molecule>
C[C@]12CCC(=O)C[C@@H]1CC[C@@H]1[C@@H]2CC[C@@]2(C)[C@H]1CC[C@]2(C)O

>  <tested_target>
Staphylococcus aureus

>  <value_units>
%

>  <Inhibition>
-23.2

$$$$
>  <molecule>
COC(=O)C[C@](O)(CCCC(C)(C)O)C(=O)O[C@@H]1C(OC)=C[C@]23CCCN2CCc2cc4c(cc2[C@H]13)OCO4 [OMACETAXINE MEPESUCCINATE]

>  <tested_target>
Staphylococcus aureus

>  <value_units>
%

>  <Inhibition>
10.39

$$$$
>  <molecule>
Cl.Oc1ccc2c3c1OC1C(O)CC[C@@]4(O)[C@@H](C2)N(CC2CCC2)CC[C@]314 (some centres not stated)

>  <tested_target>
Staphylococcus aureus

>  <value_units>
%

>  <Inhibition>
18.7

$$$$

Request: Requested read-out Inhibition, target or system Staphylococcus aureus, entry Cl.O=C1CC[C@@]2(O)[C@H]3Cc4ccc(O)c5c4[C@@]2(CCN3CC2CC2)[C@H]1O5 [NALTREXONE HYDROCHLORIDE]
Result: 14.26

====

Measured Inhibition, listed per entry.
Test system: Escherichia coli
Settings: Concentration 20 uM; ASSAY_TEST Inhibition of Bacterial Growth; detection method Absorption (OD600); MEDIA CAMHB; plate type 384well; NBS; CORNING #3640; time 18 hr
Measured potencies and affinities stand elsewhere.
In your response, put the unit directly after the numeric value.

Request: Name the recorded Inhibition for CCOC(=O)c1cncn1[C@H](C)c1ccccc1 [ETOMIDATE] .
Result: 2.26%

Request: What do you get for CN1C(=O)CN=C(c2ccccc2)c2cc(Cl)ccc21 ?
Result: 3.05%

Request: What do you get for Brc1c(NC2=NCCN2)ccc2nccnc12 ?
Result: -2.73%

====

Test system: Staphylococcus aureus
Details: Concentration 20 uM; ASSAY_TEST Inhibition of Bacterial Growth; detection method Absorption (OD600); MEDIA CAMHB; plate type 384well; NBS; CORNING #3640; time 18 hr
Results with a measured potency or affinity are listed apart.
Measured Inhibition, listed per entry.
Write the answer as a number in %, unit excluded.

Worked cases, answers included:
>  <compound>
O=C1CN=C(c2ccccc2)c2cc([N+](=O)[O-])ccc2N1 [NITRAZEPAM]

>  <attribute_measured>
Inhibition

>  <value_units>
%

>  <test_value>
7.65

$$$$
>  <compound>
C[C@]12CC[C@H](O)CC1=CC[C@@H]1[C@@H]2CC[C@]2(C)C(=O)CC[C@@H]12 [PRASTERONE]

>  <attribute_measured>
Inhibition

>  <value_units>
%

>  <test_value>
13.56

$$$$
>  <compound>
CC(C)[C@]12O[C@H]1[C@@H]1O[C@]13[C@]1(O[C@H]1C[C@H]1C4=C(CC[C@@]13C)C(=O)OC4)[C@@H]2O [TRIPTOLIDE]

>  <attribute_measured>
Inhibition

>  <value_units>
%

>  <test_value>
14.16

$$$$
>  <compound>
CCOC(=O)C1(c2ccccc2)CCN(CCC(C#N)(c2ccccc2)c2ccccc2)CC1.Cl [DIPHENOXYLATE HYDROCHLORIDE]

>  <attribute_measured>
Inhibition

>  <value_units>
%

>  <test_value>
14.18

$$$$
>  <compound>
CC(=O)OCC[N+](C)(C)C.[Cl-] [ACETYLCHOLINE CHLORIDE]

>  <attribute_measured>
Inhibition

>  <value_units>
%

>  <test_value>
11.31

$$$$

Request: Requested read-out Inhibition, target or system Staphylococcus aureus, entry CN(C)CCc1c[nH]c2ccc(C[C@H]3COC(=O)N3)cc12 [ZOLMITRIPTAN]
Result: 3.79

Request: What do you get for CNC1=Nc2ccc(Cl)cc2C(c2ccccc2)=[N+]([O-])C1 [CHLORDIAZEPOXIDE] ?
Result: 15.47

Request: What do you get for Nc1nc2ccc(Cl)cc2c2nc(-c3ccco3)nn12 [CGS-15943] ?
Result: 11.02

Request: What do you get for NC(=O)C[S+]([O-])C(c1ccccc1)c1ccccc1 (stereo not drawn) [MODAFINIL] ?
Result: 3.29

Request: What do you get for Fc1ccc([C@@H]2CCNC[C@H]2COc2ccc3c(c2)OCO3)cc1.O=C(O)/C=C\C(=O)O ?
Result: 0.49

Request: What do you get for CNCC(O)c1ccc(O)cc1 (stereo not drawn) [OXEDRINE] ?
Result: -16.09

Request: What do you get for C[C@]12CC[C@H](O)CC1=CC[C@@H]1[C@@H]2CC[C@@]2(C)[C@H]1CC[C@]2(C)O [METHANDRIOL] ?
Result: 0.46

Request: What do you get for Cl.NCC(O)c1ccc(O)c(O)c1 (stereo not drawn) ?
Result: 10.44
